System: HCT-116 colon
run.description: NCI tumour cell line growth inhibition, 48 h
Kindly state TGI for each of the entries shown.

// below: answered compounds
compound	TGI
CC1CN=C(N(C(=O)Nc2ccc(F)c(Cl)c2)c2ccccc2)S1 (configuration not stated)	67.8 µM
Cc1cn([C@@H]2C[C@H](CO)[C@@H](O)C2)c(=O)[nH]c1=O	> 100 µM
O=C1NCC(NC(=O)C(F)(F)F)c2c(Br)sc(Br)c21 (configuration not stated)	> 100 µM
CCOC(=O)c1nc2ccc(C(F)(F)F)cc2nc1Oc1ccc(C#N)cc1	> 100 µM
CN(C(=O)c1ccc([N+](=O)[O-])cc1)c1ccccc1	> 100 µM

Please supply TGI for each of the following items, keeping them in order.
1. COc1cc2c(/C=N\N=C(N)N)c[nH]c2cc1C
2. CCC1=CC2CN3Cn4c(c(COCc5c6n(c7ccccc57)CN5CC7C=C(CC)C5C6(C(=O)OC)C7)c5ccccc54)C(C(=O)OC)(C2)C13

1. 27.7 µM
2. > 100 µM

###

Kindly state TGI for each of the entries shown.
Test system: HCT-15 colon
run.description: NCI tumour cell line growth inhibition, 48 h

// below: answered compounds
compound	TGI
N#CC1=C(c2ccccc2)NNC(c2ccc(Cl)cc2)CC1=O (stereo unspecified)	> 100 µM
CCC1=NC(C(F)(F)F)(C(F)(F)F)N=C(N2CCOCC2)O1	> 100 µM
O=C1NCCS(=O)(=O)N[C@@H](CC2=CC=CCC2)C(=O)N2CCCC12 (stereo partly specified)	> 100 µM
N#CCc1nc(-c2ccccc2)n[nH]1	> 100 µM
O=C(CN(c1ccccc1)c1ccccc1)N1c2ccccc2C2C=CC=CC21 (stereo unspecified)	32.1 µM

Please supply TGI for each of the following items, keeping them in order.
1. O=C(NC(COC(=O)C(Cc1ccccc1)NC(=O)c1ccccc1)Cc1ccccc1)c1ccccc1 (stereo unspecified)
2. CC(C)[C@H](O)C(=O)N[C@@H](C)C(=O)N[C@@H]1C(=O)N(C)CCc2ccccc21
3. Nc1ccccc1O.O.O=C(O)C1[O][Sb][O]C1C(=O)O (stereo unspecified)
4. CC(O)CCCOC(c1ccccc1)(c1ccccc1)c1ccccc1 (stereo unspecified)
5. C#CCOc1cccc(Nc2ncnc3c(NC(=O)C=C)cccc23)c1

["> 50 µM", "> 100 µM", "57.1 µM", "29.8 µM", "81.8 µM"]

GET /values?readout=TGI&item= CCC/C=C/C=C/C1CC(O)C(O)C(=O)C1CO (stereo unspecified)
> 100 µM

###

Kindly state GI50 for each of the entries shown.
System: MALME-3M melanoma
run.description: NCI tumour cell line growth inhibition, 48 h

// below: answered compounds
compound	GI50
COc1ccc(-c2nccn2-c2ccc(OC)cc2)cc1	15.9 µM
Nc1cc(Br)c(-c2nnc(CCC(=O)c3nc4ccccc4[nH]3)o2)c(Br)c1	2.06 µM
CN(C)C(=S)SSC(=S)N(C)C	16.3 µM
Nc1cc2c(cc1Br)[nH]c(=O)c1ccccc12	2.17 µM
Nc1ccccc1O.O.O=C(O)C1[O][Sb][O]C1C(=O)O (stereo unspecified)	1.65 µM
O=C1CCCN1c1ccccc1I(=O)=O	> 100 µM
O=C(c1ccco1)c1c(C(F)(F)F)n([O-])c2ccc(C(F)(F)F)cc2[n+]1=O	0.595 µM
CC(C)[C@H](O)C(=O)N[C@@H](C)C(=O)N[C@@H]1C(=O)N(C)CCc2ccccc21	> 100 µM
Cc1ccc(OCCOCCOCCOCCOc2ccc(C)n(O)c2=S)c(=S)n1O	0.0644 µM
CCc1ccc2c(c1)C(=O)c1c-2n(CCCN=[N+]=[N-])c(=O)c2cc([N+](=O)[O-])ccc12	> 50 µM

Here is the next item to consider.
State its GI50 on MALME-3M melanoma: COC(=O)c1cc2c(o1)-c1nccc3c1c(nc1ccccc13)C2=O
1.89 µM
